Test system: Aedes aegypti
assay.overview: in vitro Warm Body assay, substance applied on glass Petri dish on top of the warm body (deterrence and repellence)
Format: in vivo
experimental.conditions: 1% in ethanol; ethanol control 59.3±6.9 landings
quantity.name: number of mosquitoes landing within 2 minutes on the warm body

[[record]]
compound = "CC(C=O)Cc1ccc(C(C)C)cc1 (centres unmarked) [2-methyl-3-(4-propan-2-ylphenyl)propanal]"
obs_value = 1.0

[[record]]
compound = "COc1cc(C=O)ccc1O [4-hydroxy-3-methoxybenzaldehyde]"
obs_value = 3.0

[[record]]
compound = "CC(C)=CCC/C(C)=C/C=O [(2E)-3,7-dimethylocta-2,6-dienal]"
obs_value = 2.0

[[record]]
compound = "C=C(C)[C@@H]1CC=C(C)C(=O)C1"
obs_value = 3.0

[[record]]
compound = "O=c1ccc2ccccc2o1 [chromen-2-one]"
obs_value = 1.0

[[record]]
compound = "CCN(CC)C(=O)c1cccc(C)c1 [N,N-diethyl-3-methylbenzamide, reference compound]"
obs_value = 2.6

[[record]]
compound = "CCCCCC1CCC(=O)O1 (centres unmarked) [5-pentyloxolan-2-one]"
obs_value = 1.0

[[record]]
compound = "CCCCN(CCC(=O)OCC)C(C)=O [ethyl 3-[acetyl(butyl)amino]propanoate, reference compound]"
obs_value = 7.7


meta.source: patent US20230247992A1
